- Experimental Protocol: Displacement of [3H]-di-o-tolylguanidine from sigma 2 receptor in Sprague-Dawley rat liver membranes after 120 mins by beta counting in presence of (+)-pentazocine
- Format: cell membranes, Membrane
Readout Label: pKi
For clarity, pKi is expressed as the negative log10 of concentration in mol/L.

Consider the reported pKi for these compounds:
{"columns": ["Query Smiles", "pKi"],
 "data": [
  ["COc1cc2c(cc1OC)CN(CCNc1cc(-n3nc(C)c4c3CC(C)(C)CC4=O)ccc1C(N)=O)CC2", 6.09],
  ["COc1cc2c(cc1OC)CN(CCCNc1cc(-n3nc(C)c4c3CC(C)(C)CC4=O)ccc1C(N)=O)CC2", 7.05]
]}

Please find the next compound below.
I am curious: what pKi value has been reported for COc1cc2c(cc1OC)CN(CCCCCNc1cc(-n3nc(C)c4c3CC(C)(C)CC4=O)ccc1C(N)=O)CC2 ?
7.13

###

Catalogue of Ratio Ki values
- Experimental Protocol: Selectivity ratio of Ki for sigma 1 receptor in guinea pig brain homogenate to Ki for sigma 2 receptor in Sprague-Dawley rat liver membranes
- Assay type: cell membranes

Quick one: Ratio Ki of Cc1nn(-c2ccc(C(N)=O)c(NC3CC4CCCC(C3)N4)c2)c2c1C(=O)CC(C)(C)C2 (centres undefined) ?
> 21

Cool, now COc1cc2c(cc1OC)CN(CCCCNc1cc(-n3nc(C)c4c3CC(C)(C)CC4=O)ccc1C(N)=O)CC2
> 7

Record: COc1cc2c(cc1OC)CN(CCCNc1cc(-n3nc(C)c4c3CC(C)(C)CC4=O)ccc1C(N)=O)CC2
> 11

Another: COc1cc2c(cc1OC)CN(CCCCCNc1cc(-n3nc(C)c4c3CC(C)(C)CC4=O)ccc1C(N)=O)CC2
> 13

###

# Ki listing for each entry below
- Study System: Sigma non-opioid intracellular receptor 1 (Cavia porcellus)
- Sequence (Q60492 whole entry): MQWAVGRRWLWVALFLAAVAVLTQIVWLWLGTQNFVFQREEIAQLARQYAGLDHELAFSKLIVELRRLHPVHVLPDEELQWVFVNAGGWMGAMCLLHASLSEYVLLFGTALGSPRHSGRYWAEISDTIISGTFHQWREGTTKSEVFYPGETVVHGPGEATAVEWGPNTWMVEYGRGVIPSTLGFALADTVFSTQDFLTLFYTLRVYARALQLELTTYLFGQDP
- Experimental Protocol: Displacement of (+)-[3H]pentazocine from sigma 1 receptor in guinea pig brain homogenate after 120 mins by beta counting

{"columns": ["Query Smiles", "Readout Label", "Result"],
 "data": [
  ["COc1cc2c(cc1OC)CN(CCCNc1cc(-n3nc(C)c4c3CC(C)(C)CC4=O)ccc1C(N)=O)CC2", "Ki", "> 1000 nM"],
  ["COc1cc2c(cc1OC)CN(CCCCNc1cc(-n3nc(C)c4c3CC(C)(C)CC4=O)ccc1C(N)=O)CC2", "Ki", "> 1000 nM"]
]}

# evaluate next
If you can, please state the reported Ki value of COc1cc2c(cc1OC)CN(CCCCCCNc1cc(-n3nc(C)c4c3CC(C)(C)CC4=O)ccc1C(N)=O)CC2 .
> 1000 nM

###

Below, each entry is listed with its recorded Ki.
- Experimental Protocol: Displacement of [3H]-di-o-tolylguanidine from sigma 2 receptor in Sprague-Dawley rat liver membranes after 120 mins by beta counting in presence of (+)-pentazocine
- Format: cell membranes, Membrane
Respond with the bare value in µM.

{"columns": ["Compound", "Readout Label", "Quantitative Readout"],
 "data": [
  ["Cc1nn(-c2ccc(C(N)=O)c(NC3CC4CCCC(C3)N4)c2)c2c1C(=O)CC(C)(C)C2 (stereo not given)", "Ki", 0.0466]
]}

Endpoint output: Ki of COc1cc2c(cc1OC)CN(CCCCCCNc1cc(-n3nc(C)c4c3CC(C)(C)CC4=O)ccc1C(N)=O)CC2 . Value?
21.5

###

- Experimental Protocol: Displacement of [3H]-di-o-tolylguanidine from sigma 2 receptor in Sprague-Dawley rat liver membranes after 120 mins by beta counting in presence of (+)-pentazocine
- Format: cell membranes, Membrane
Readout Label: pKi
pKi (log units): -log10 of the concentration in mol/L.

Below, 2 compounds whose answers are already recorded.
{"columns": ["Query Smiles", "pKi"],
 "data": [
  ["COc1cc2c(cc1OC)CN(CCCCNc1cc(-n3nc(C)c4c3CC(C)(C)CC4=O)ccc1C(N)=O)CC2", 6.85],
  ["COc1cc2c(cc1OC)CN(c1cc(-n3nc(C)c4c3CC(C)(C)CC4=O)ccc1C(N)=O)CC2", 4.74]
]}

Please look at the following compound next.
What value of pKi has been reported for the following compound? Cc1ccccc1NC(=N)Nc1ccccc1C
7.71
